This collection of values is drawn from patent US9999622B2.

- ASSAYED_SYSTEM: JAK3 (Homo sapiens)
- Construct: purchased Carna Biosciences, Inc
- Sequence (P52333 1-1124): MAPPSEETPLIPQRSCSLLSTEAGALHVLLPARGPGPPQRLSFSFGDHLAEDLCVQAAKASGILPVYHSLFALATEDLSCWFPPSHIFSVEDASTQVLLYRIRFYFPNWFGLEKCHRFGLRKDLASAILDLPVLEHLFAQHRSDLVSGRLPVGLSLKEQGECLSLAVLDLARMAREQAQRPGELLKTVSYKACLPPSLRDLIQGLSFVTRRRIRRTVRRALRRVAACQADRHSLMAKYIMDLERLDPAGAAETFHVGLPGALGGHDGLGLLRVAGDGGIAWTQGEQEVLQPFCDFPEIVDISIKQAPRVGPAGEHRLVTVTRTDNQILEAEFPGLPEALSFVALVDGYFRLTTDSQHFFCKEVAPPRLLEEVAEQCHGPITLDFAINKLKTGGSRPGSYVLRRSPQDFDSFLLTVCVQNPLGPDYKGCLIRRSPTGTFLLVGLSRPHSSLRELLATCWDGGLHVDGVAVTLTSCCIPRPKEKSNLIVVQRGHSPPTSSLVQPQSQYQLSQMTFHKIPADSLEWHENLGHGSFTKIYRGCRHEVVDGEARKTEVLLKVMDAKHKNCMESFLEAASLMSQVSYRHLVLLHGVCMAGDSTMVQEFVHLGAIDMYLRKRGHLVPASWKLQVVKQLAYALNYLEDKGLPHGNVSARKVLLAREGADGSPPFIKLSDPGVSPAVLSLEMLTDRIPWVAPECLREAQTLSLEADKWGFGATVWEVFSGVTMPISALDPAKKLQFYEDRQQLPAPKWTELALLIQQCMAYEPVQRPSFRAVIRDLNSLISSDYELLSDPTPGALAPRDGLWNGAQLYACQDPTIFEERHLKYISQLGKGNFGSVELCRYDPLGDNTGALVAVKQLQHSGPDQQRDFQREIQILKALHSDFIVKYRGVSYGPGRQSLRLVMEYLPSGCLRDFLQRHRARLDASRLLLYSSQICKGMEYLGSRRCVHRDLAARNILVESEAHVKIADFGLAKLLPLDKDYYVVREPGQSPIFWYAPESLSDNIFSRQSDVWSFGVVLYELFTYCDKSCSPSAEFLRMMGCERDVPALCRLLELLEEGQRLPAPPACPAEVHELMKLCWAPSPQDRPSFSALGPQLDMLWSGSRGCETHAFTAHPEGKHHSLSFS
- ASSAY_DETAILS: JAK tyrosine kinase inhibitory activity in the presence of 1 mM ATP (ELISA), JAK3
- Format: biochemical
The following compounds are shown together with reported IC50 values.
OBSERVATION_TYPE: IC50

In [3]: df
Out[3]:
                                   compound      result
0  C[C@H](Nc1cc(C(=O)N2CCC(Nc3nccs3)CC2)nc(-c2cnn3ccsc23)n1)C1CC1     2500 nM
1  CC(Oc1cc(C(=O)N2CCC(NC(=O)C3CC3)CC2)nc(-c2cnn3ccsc23)n1)C(C)(C)C (stereo not shown)  > 10000 nM
2  N#CCC(=O)N1CC[C@H](Nc2cc(C(=O)N3CCC(NC(=O)C4CC4)CC3)nc(-c3cnn4ccsc34)n2)C1  > 10000 nM
3  CC(C)(C)OC(=O)N1CCC(Nc2cc(C(=O)N3CCC(NC(=O)C4CC4)CC3)nc(-c3cnn4ccsc34)n2)CC1  > 10000 nM
4  CC1(Nc2cc(C(=O)N3CCC(NC(=O)C4CC4)CC3)nc(-c3cnn4ccsc34)n2)CC1  > 10000 nM
5  CCC(=O)NC1CCN(C(=O)c2cc(NC3(C)CC3)nc(-c3cnn4ccsc34)n2)CC1  > 10000 nM
6  O=C(NC1CCN(C(=O)c2cc(NCC3(COC(F)F)CCC3)nc(-c3cnn4ccsc34)n2)CC1)C1CC1     2000 nM
